- system_tested: Human KLK1 (Homo sapiens (Human), UniProt P06870)
- Sequence (P06870 25-262): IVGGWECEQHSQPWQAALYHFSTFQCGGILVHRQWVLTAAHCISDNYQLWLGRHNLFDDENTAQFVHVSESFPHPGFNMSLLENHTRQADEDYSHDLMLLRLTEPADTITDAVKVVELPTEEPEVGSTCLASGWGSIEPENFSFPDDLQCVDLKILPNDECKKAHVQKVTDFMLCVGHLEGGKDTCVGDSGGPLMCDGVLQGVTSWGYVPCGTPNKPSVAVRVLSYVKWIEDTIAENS
reported_property: IC50

Answered cases to consult:
>>> obs_value("CC1CCN(c2cc(Cc3cncc(C(=O)NCc4ccc5c(N)nccc5c4)c3)ccn2)C1 (stereo not shown) [Example 83]")
"2.87 µM"
>>> obs_value("CC1(C)CCN(c2ccc(Cc3cncc(C(=O)NCc4ccc5c(N)nccc5c4)c3)cn2)C1 [Example 74]")
"> 10 µM"
>>> obs_value("COC1CCN(c2cc(Cc3cncc(C(=O)NCc4ccc5c(N)nccc5c4)c3)ccn2)C1 (stereo not shown) [Example 88]")
"9.85 µM"
>>> obs_value("Nc1nccc2cc(CNC(=O)c3cncc(Cc4ccnc(N5CCCC5CO)c4)c3)ccc12 (stereo not shown) [Example 89]")
"4.84 µM"
>>> obs_value("Nc1nccc2cc(CNC(=O)c3cncc(Cc4ccc(-n5cccn5)cc4)c3)ccc12 [Example 27]")
"12.1 µM"
>>> obs_value("CN(C)[C@H]1CCN(c2cc(Cc3cncc(C(=O)NCc4ccc5c(N)nccc5c4)c3)ccn2)C1 (stereo in doubt) [Example 91]")
"2.11 µM"
>>> obs_value("Nc1nccc2cc(CNC(=O)c3cncc(CN4CCN(Cc5cccc(F)c5)CC4)c3)ccc12 [Example 46]")
"29.2 µM"
>>> obs_value("COc1cccc(CN2CCN(Cc3cncc(C(=O)NCc4ccc5c(N)nccc5c4)c3)CC2)c1 [Example 49]")
"> 10 µM"
>>> obs_value("Nc1nccc2cc(CNC(=O)c3ccc(=O)n(Cc4csc(-c5ccccc5)n4)c3)ccc12 [Example 14]")
"4.16 µM"
>>> obs_value("CC(C)Oc1ccc(Cc2cncc(C(=O)NCc3ccc4c(N)nccc4c3)c2)cn1 [Example 70]")
"> 10 µM"

Form: item COc1ncc(C(=O)NCc2ccc3c(N)nccc3c2)cc1Cc1ccc2nc(C)ccc2c1 [Example 18] ; test system Human KLK1 (Homo sapiens (Human), UniProt P06870); IC50: 1.74 µM

Summary: CCN(CC)c1ccc(Cc2cncc(C(=O)NCc3ccc4c(N)nccc4c3)c2)cn1 [Example 66] , Human KLK1 (Homo sapiens (Human), UniProt P06870), IC50 = 5.85 µM

Form: item Cc1ccc2cc(Cc3cncc(C(=O)NCc4c(C)nc5[nH]ccc(C)c4-5)c3)ccc2n1 [Example 13] ; test system Human KLK1 (Homo sapiens (Human), UniProt P06870); IC50: 0.236 µM
